system: KB tumor-bearing athymic nude mice; assay: Biodistribution of 177Lu-RedFols in KB tumor-bearing mice; assay type: in vivo, mouse; settings: 4 h p.i.
Property: Tumor-to-kidney ratio; scope: individual molecules
Answer with a number only.

CN1c2c(nc(N)[nH]c2=O)NC[C@H]1CNc1ccc(C(=O)N[C@@H](CCC(=O)N[C@@H](CCCCNC(=O)CN2CCN(CC(=O)O)CCN(CC(=O)O)CCN(CC(=O)O)CC2)C(=O)N[C@@H](CCCCNC(=O)c2ccc(CNC(=O)CCCCc3ccc(I)cc3)cc2)C(=O)O)C(=O)O)cc1 [[^177Lu]Lu-6R-RedFol-25, metal not drawn] :: 0.78

Shifting focus to the molecule that follows.
IN: Supply Tumor-to-kidney ratio value. Item: CN1c2c(nc(N)[nH]c2=O)NCC1CNc1ccc(C(=O)NC(CCC(=O)NC(CCCCNC(=O)CN2CCN(CC(=O)[O-])CCN(CC(=O)[O-])CCN(CC(=O)[O-])CC2)C(=O)NC(CCCCNC(=O)c2ccc(CNC(=O)CCCc3ccc(I)cc3)cc2)C(=O)O)C(=O)O)cc1.[177Lu+3] (stereo not drawn) [[^177Lu]Lu-6S-RedFol-3]
OUT: 1.4

====

Measured Lung, accumulated activity values are reported for all entries that follow.
system: KB tumor-bearing athymic nude mice; assay: Biodistribution of 177Lu-RedFols in KB tumor-bearing mice; assay type: in vivo, mouse; conditions: 1 h p.i.
Write the answer as a number in % IA/g, unit excluded.

CN1c2c(nc(N)[nH]c2=O)NC[C@H]1CNc1ccc(C(=O)N[C@@H](CCC(=O)N[C@@H](CCCCNC(=O)CN2CCN(CC(=O)O)CCN(CC(=O)O)CCN(CC(=O)O)CC2)C(=O)N[C@@H](CCCCNC(=O)c2ccc(CNC(=O)CCCCc3ccc(I)cc3)cc2)C(=O)O)C(=O)O)cc1 [[^177Lu]Lu-6R-RedFol-25, metal not drawn] :: 5.8

# input for lookup
IN: Report measured Lung, accumulated activity on KB tumor-bearing athymic nude mice; entry: CN1c2c(nc(N)[nH]c2=O)NC[C@H]1CNc1ccc(C(=O)N[C@@H](CCC(=O)N[C@@H](CCCCNC(=O)CN2CCN(CC(=O)O)CCN(CC(=O)O)CCN(CC(=O)O)CC2)C(=O)N[C@@H](CCCCNC(=O)CCCCc2ccc(I)cc2)C(=O)O)C(=O)O)cc1 [[^177Lu]Lu-6R-RedFol-24, metal not drawn]
OUT: 4.6

====

biological target: mouse serum albumin (MSA) in mouse plasma (Mus musculus, UniProt P07724); construct: tissue Rockland Immunochemicals, Inc. Lot No. 32321; host or cells: mouse blood plasma, undiluted and diluted in PBS; test: Ultrafiltration albumin-binding assay of 177Lu-RedFols, mouse plasma; details: mouse blood plasma; inverse B50 ratio, normalized to the respective (6R or 6S) RedFol-1, set as 1.0
Sequence (P07724 25-608): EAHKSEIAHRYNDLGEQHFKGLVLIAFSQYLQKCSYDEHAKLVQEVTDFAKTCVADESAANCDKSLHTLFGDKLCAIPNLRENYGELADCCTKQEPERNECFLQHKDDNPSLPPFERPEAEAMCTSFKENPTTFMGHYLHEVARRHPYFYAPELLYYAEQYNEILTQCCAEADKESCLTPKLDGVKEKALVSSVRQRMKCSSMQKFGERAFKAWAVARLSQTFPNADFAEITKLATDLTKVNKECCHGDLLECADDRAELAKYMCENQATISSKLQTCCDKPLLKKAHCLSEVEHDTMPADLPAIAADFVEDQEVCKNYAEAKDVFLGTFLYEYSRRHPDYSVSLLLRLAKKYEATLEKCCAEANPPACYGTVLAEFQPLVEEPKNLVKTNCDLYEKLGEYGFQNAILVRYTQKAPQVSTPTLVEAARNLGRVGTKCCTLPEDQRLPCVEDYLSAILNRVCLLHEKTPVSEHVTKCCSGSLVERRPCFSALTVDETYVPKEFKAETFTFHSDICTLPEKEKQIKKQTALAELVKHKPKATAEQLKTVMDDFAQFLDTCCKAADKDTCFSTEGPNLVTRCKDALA
Relative albumin-binding affinity vs 1: less than gives satisfied; not less than gives not satisfied.

For orientation, consider the following solved cases.
CN1c2c(nc(N)[nH]c2=O)NC[C@H]1CNc1ccc(C(=O)N[C@@H](CCC(=O)N[C@@H](CCCCNC(=O)CN2CCN(CC(=O)O)CCN(CC(=O)O)CCN(CC(=O)O)CC2)C(=O)N[C@@H](CCCCNC(=O)CCCCc2ccc(I)cc2)C(=O)O)C(=O)O)cc1 [[^177Lu]Lu-6R-RedFol-24, metal not drawn] :: satisfied
CN1c2c(nc(N)[nH]c2=O)NCC1CNc1ccc(C(=O)NC(CCC(=O)NC(CCCCNC(=O)CN2CCN(CC(=O)[O-])CCN(CC(=O)[O-])CCN(CC(=O)[O-])CC2)C(=O)NC(CCCCNC(=O)c2ccc(CNC(=O)CCCc3ccc(I)cc3)cc2)C(=O)O)C(=O)O)cc1.[177Lu+3] (stereo not drawn) [[^177Lu]Lu-6S-RedFol-3] :: not satisfied
CN1c2c(nc(N)[nH]c2=O)NCC1CNc1ccc(C(=O)NC(CCC(=O)NC(CCCCNC(=O)CN2CCN(CC(=O)[O-])CCN(CC(=O)[O-])CCN(CC(=O)[O-])CC2)C(=O)NC(CCCCNC(=O)c2ccc(CNC(=O)CCCCc3ccc(I)cc3)cc2)C(=O)O)C(=O)O)cc1.[177Lu+3] (stereo not drawn) [[^177Lu]Lu-6S-RedFol-25] :: satisfied
CN1c2c(nc(N)[nH]c2=O)NC[C@H]1CNc1ccc(C(=O)N[C@@H](CCC(=O)N[C@@H](CCCCNC(=O)CN2CCN(CC(=O)O)CCN(CC(=O)O)CCN(CC(=O)O)CC2)C(=O)N[C@@H](CCCCNC(=O)c2ccc(CNC(=O)CCCCc3ccc(I)cc3)cc2)C(=O)O)C(=O)O)cc1 [[^177Lu]Lu-6R-RedFol-25, metal not drawn] :: not satisfied

Let's switch to this compound now.
IN: Would you kindly verify if Relative albumin-binding affinity of CN1c2c(nc(N)[nH]c2=O)NC[C@H]1CNc1ccc(C(=O)N[C@@H](CCC(=O)N[C@@H](CCCCNC(=O)CN2CCN(CC(=O)O)CCN(CC(=O)O)CCN(CC(=O)O)CC2)C(=O)N[C@@H](CCCCNC(=O)c2ccc(CNC(=O)CCCc3ccc(I)cc3)cc2)C(=O)O)C(=O)O)cc1 [[^177Lu]Lu-6R-RedFol-3, metal not drawn] is strictly less than 1?
OUT: not satisfied

====

Albumin-bound fraction for assorted compounds
molecular target: mouse serum albumin (MSA) in mouse plasma (Mus musculus, UniProt P07724); construct: tissue Rockland Immunochemicals, Inc. Lot No. 32321; host or cells: mouse blood plasma, undiluted and diluted in PBS; test: Ultrafiltration albumin-binding assay of 177Lu-RedFols, mouse plasma; conditions: undiluted mouse blood plasma
Entry rule: numbers only, all in %.

Solved cases below.
CN1c2c(nc(N)[nH]c2=O)NC[C@H]1CNc1ccc(C(=O)N[C@@H](CCC(=O)N[C@@H](CCCCNC(=O)CN2CCN(CC(=O)O)CCN(CC(=O)O)CCN(CC(=O)O)CC2)C(=O)N[C@@H](CCCCNC(=O)c2ccc(CNC(=O)CCCc3ccc(I)cc3)cc2)C(=O)O)C(=O)O)cc1 [[^177Lu]Lu-6R-RedFol-3, metal not drawn] :: 97
CN1c2c(nc(N)[nH]c2=O)NC[C@H]1CNc1ccc(C(=O)N[C@@H](CCC(=O)N[C@@H](CCCCNC(=O)CN2CCN(CC(=O)O)CCN(CC(=O)O)CCN(CC(=O)O)CC2)C(=O)N[C@@H](CCCCNC(=O)CCCc2ccc(I)cc2)C(=O)O)C(=O)O)cc1 [[^177Lu]Lu-6R-RedFol-1, metal not drawn] :: 93
CN1c2c(nc(N)[nH]c2=O)NC[C@H]1CNc1ccc(C(=O)N[C@@H](CCC(=O)N[C@@H](CCCCNC(=O)CN2CCN(CC(=O)O)CCN(CC(=O)O)CCN(CC(=O)O)CC2)C(=O)N[C@@H](CCCCNC(=O)c2ccc(CNC(=O)CCCCc3ccc(I)cc3)cc2)C(=O)O)C(=O)O)cc1 [[^177Lu]Lu-6R-RedFol-25, metal not drawn] :: 94
CN1c2c(nc(N)[nH]c2=O)NCC1CNc1ccc(C(=O)NC(CCC(=O)NC(CCCCNC(=O)CN2CCN(CC(=O)[O-])CCN(CC(=O)[O-])CCN(CC(=O)[O-])CC2)C(=O)NC(CCCCNC(=O)c2ccc(CNC(=O)CCCc3ccc(I)cc3)cc2)C(=O)O)C(=O)O)cc1.[177Lu+3] (stereo not drawn) [[^177Lu]Lu-6S-RedFol-3] :: 97
CN1c2c(nc(N)[nH]c2=O)NCC1CNc1ccc(C(=O)NC(CCC(=O)NC(CCCCNC(=O)CN2CCN(CC(=O)[O-])CCN(CC(=O)[O-])CCN(CC(=O)[O-])CC2)C(=O)NC(CCCCNC(=O)c2ccc(CNC(=O)CCCCc3ccc(I)cc3)cc2)C(=O)O)C(=O)O)cc1.[177Lu+3] (stereo not drawn) [[^177Lu]Lu-6S-RedFol-25] :: 92

IN: Jot down Albumin-bound fraction (mouse serum albumin (MSA) in mouse plasma (Mus musculus, UniProt P07724)) of CN1c2c(nc(N)[nH]c2=O)NC[C@H]1CNc1ccc(C(=O)N[C@@H](CCC(=O)N[C@@H](CCCCNC(=O)CN2CCN(CC(=O)O)CCN(CC(=O)O)CCN(CC(=O)O)CC2)C(=O)N[C@@H](CCCCNC(=O)CCCCc2ccc(I)cc2)C(=O)O)C(=O)O)cc1 [[^177Lu]Lu-6R-RedFol-24, metal not drawn] .
OUT: 73

IN: Given CN1c2c(nc(N)[nH]c2=O)NCC1CNc1ccc(C(=O)NC(CCC(=O)NC(CCCCNC(=O)CN2CCN(CC(=O)[O-])CCN(CC(=O)[O-])CCN(CC(=O)[O-])CC2)C(=O)NC(CCCCNC(=O)CCCc2ccc(I)cc2)C(=O)O)C(=O)O)cc1.[177Lu+3] (stereo not drawn) [[^177Lu]Lu-6S-RedFol-1] , report its Albumin-bound fraction on mouse serum albumin (MSA) in mouse plasma (Mus musculus, UniProt P07724).
OUT: 93
